Data provenance is the supplement of paper PMC11208160.

Experiment: recombinant barcode read abundance after kanamycin selection (control-corrected) (log10(CPM+1)); higher = more efficient recombination; sequences stand for … in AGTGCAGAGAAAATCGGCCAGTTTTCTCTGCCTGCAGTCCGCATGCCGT…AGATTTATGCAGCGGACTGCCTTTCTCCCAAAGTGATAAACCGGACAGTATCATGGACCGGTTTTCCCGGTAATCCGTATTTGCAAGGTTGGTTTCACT; site = the 11-nt target
Parameter: recombinant barcode read abundance (log10). Scope: all listed entries.
READOUT_LABEL: recombinant barcode read abundance (log10)

construct_sequence="GCCGAGTCTTGGGTTCTAACCTGTTGCTG (site GCCGAGTCTAA)" recorded_result=0.11
construct_sequence="GGGCTGTCTTGGGTTCTAACCTGTTGCTT (site GGGGTGTCTCA)" recorded_result=0.37
construct_sequence="CCGTCTACTTGGGTTCTAACCTGTTGCCA (site TAACTGTCTAA)" recorded_result=0.164
construct_sequence="GGGATGTCTTGGGTTCTAACCTGTTGCCT (site GCGATGTCTAG)" recorded_result=0.128
construct_sequence="TCTTGGACTTGGGTTCTAACCTGTTGCAC (site TCTTGGACTGT)" recorded_result=0.104
construct_sequence="CCTCCCTCTTGGGTTCTAACCTGTTGCTG (site CCTCCCTCTTA)" recorded_result=0.036
construct_sequence="GGGTCCTCTTGGGTTCTAACCTGTTGCCT (site GGGTCCTCTGG)" recorded_result=0.578
construct_sequence="CAGCCCTCTTGGGTTCTAACCTGTTGCCT (site CAGCCCTCTAG)" recorded_result=2.59
construct_sequence="CCAAGCACTTGGGTTCTAACCTGTTGCCT (site CCAAGCTCTAG)" recorded_result=0.172
construct_sequence="AAGGTCCCTTGGGTTCTAACCTGTTGCGG (site AAGGTCCCTCC)" recorded_result=3.32

###

Parameter: recombinant UMI read abundance (log10). Scope: all listed entries.
Assay: recombinant UMI read abundance after kanamycin selection (control-corrected) (log10(CPM+1)); higher = more efficient recombination; extreme values may be limits of the assay; sequences stand for … in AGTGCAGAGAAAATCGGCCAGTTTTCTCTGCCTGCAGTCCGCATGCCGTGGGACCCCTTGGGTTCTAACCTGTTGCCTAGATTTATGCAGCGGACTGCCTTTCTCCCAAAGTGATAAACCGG…AGGTTGGTTTCACT; site = the 11-nt donor
READOUT_LABEL: recombinant UMI read abundance (log10)

construct_sequence="GGAGTGGCATGGACCGGTTTTCCCGGTAATCCGTATTTGCT (site GGAGTGGCTAG)" readout_label="recombinant UMI read abundance (log10)" recorded_result=2.36
construct_sequence="CTCTTGGCATGGACCGGTTTTCCCGGTAATCCGTATTTGAA (site CTCTTGGCTTT)" readout_label="recombinant UMI read abundance (log10)" recorded_result=1.08
construct_sequence="CTTGTTCCATGGACCGGTTTTCCCGGTAATCCGTATTTGGT (site ATTGTTCCTAC)" readout_label="recombinant UMI read abundance (log10)" recorded_result=0.0155
construct_sequence="CTGACATCATGGACCGGTTTTCCCGGTAATCCGTATTTGCT (site CTGACATCTAG)" readout_label="recombinant UMI read abundance (log10)" recorded_result=2.47
construct_sequence="CGATATACATGGACCGGTTTTCCCGGTAATCCGTATTTGTA (site CGATATACTTA)" readout_label="recombinant UMI read abundance (log10)" recorded_result=2.25
construct_sequence="CAATCCTCATGGACCGGTTTTCCCGGTAATCCGTATTTGAA (site CAATGCTCTTT)" readout_label="recombinant UMI read abundance (log10)" recorded_result=0.00935
construct_sequence="TCATCTTCATGGACCGGTTTTCCCGGTAATCCGTATTTGGT (site TCATCTTCTAC)" readout_label="recombinant UMI read abundance (log10)" recorded_result=0.467
construct_sequence="GGTAGGTCATGGACCGGTTTTCCCGGTAATCCGTATTTGTT (site GGTAAGTCTAA)" readout_label="recombinant UMI read abundance (log10)" recorded_result=0.00393
construct_sequence="GTCGGGACATGGACCGGTTTTCCCGGTAATCCGTATTTGGG (site GTCGGGACTCC)" readout_label="recombinant UMI read abundance (log10)" recorded_result=0.0114
